Measured GI50 accompanies every entry in the list below.
test system: HT-29; experiment: NCI tumour cell line growth inhibition, 48 h
Active and inactive are the calls of the source. Cut-off read from the data, not from the text of the source: active = GI50 up to about 1.1 µM and inactive = higher.

Below: 5 compounds and their reported GI50.
Data request, read-out GI50, for CCN(CCCl)CCCNc1c2ccccc2nc2ccc(OC)cc12 0.0853 µM (active)

For the compound O=C([O-])C[n+]1ccccc1.c1ccncc1 , what GI50 is on record? > 100 µM (inactive)

Which GI50 value belongs to COc1ccc(C(=O)N/N=C/c2c(C)n(C)n(-c3ccccc3)c2=O)cc1 ? > 100 µM (inactive)

Dear colleague, I am looking for the recorded GI50 of the following compound: CC(=O)Nc1ccc(Nc2cc(O)nc(O)n2)cc1 > 100 µM (inactive)

Could you share which GI50 value was measured for COC(=O)[C@@H]1c2[nH]c3ccccc3c2C[C@@H]2c3ccccc3NC(=O)[C@@H]21 ? > 100 µM (inactive)

---
Find the recorded GI50 belonging to CCN(CC)c1c(N(CC)CC)c(=O)c1=O and report it. 2.42 µM (inactive)

Need GI50 of COC(=O)C(C(=O)C(=O)Nc1ccccc1C(C)=O)c1nc2ccc(Cl)cc2nc1O (configuration not stated) , thanks. > 100 µM (inactive)

What measured GI50 goes with CCCCC/C=C1\CCC(CN2CCOCC2)C1=O (configuration not stated) ? 10.9 µM (inactive)

Which measured GI50 value corresponds to BrC(=C(c1ccc(OC2CCCCO2)cc1)c1ccc(OC2CCCCO2)cc1)c1ccccc1 (configuration not stated) ? > 100 µM (inactive)

// query GI50 value for entry COc1cc(C2c3cc4c(c(O)c3C(=O)C3CCC(=O)N32)OCO4)cc(OC)c1OC (configuration not stated) 42.9 µM (inactive)

Bench note: what GI50 did COC1C=C(NCC2(CO)CCC2)N=C(N)N1 (configuration not stated) show? > 100 µM (inactive)

Which GI50 is listed for COc1ccc(C2C(N)=NCC2c2ccccn2)cc1 (configuration not stated) ? > 100 µM (inactive)

// returns reported GI50 for input O=C(CC(C(=O)c1cccs1)c1ccsc1)c1ccco1 (configuration not stated) 4.8 µM (inactive)

For the compound C=C1CC(c2ccc(OCCCN3C(=O)c4ccccc4C3=O)c(OC)c2)OC1=O (configuration not stated) , what GI50 is on record? 2.58 µM (inactive)

Look up GI50 for this compound: CN(C)C(=S)/N=c1\ss/c(=N\S(=O)(=O)c2ccccc2)n1-c1ccccc1 0.0522 µM (active)

Please look up its GI50: Cc1ccc([S+]([O-])/C=C(\NC(=O)OCc2ccccc2)C(F)(F)F)cc1 (configuration not stated) 32.1 µM (inactive)

Would you mind telling me what GI50 value was observed for Cc1ccc(N2C(=O)C3c4[nH]c5ccc(C)cc5c4C4CCC(C(C)(C)C)CC4C3C2=O)cc1 (configuration not stated) ? 15.6 µM (inactive)

Item under review: CNc1nnc(CNc2ccc(-c3nnc(NC)n3N)cc2)n1N . Reported GI50? > 100 µM (inactive)

Would you mind telling me what GI50 value was observed for CCn1cc(C(c2ccc(Cl)cc2)n2ccnc2)c2cc(Br)ccc21 (configuration not stated) ? 7.55 µM (inactive)

Using the record for Oc1c(NCn2nc(CCCCCCCCc3nn(CNc4ccc5ccccc5c4O)c(=S)o3)oc2=S)ccc2ccccc12 , report its GI50. 73.6 µM (inactive)

May I ask what GI50 has been recorded for Cc1nc2sccn2c1C(=O)OCCOCCOCCOCCOC(=O)c1c(C)nc2sccn12 ? > 100 µM (inactive)

Give the measured GI50 of O=C(c1ccc(Cl)cc1)N(C(=O)N1CCC(c2ccccc2)CC1)c1ccccc1 . 31.3 µM (inactive)

Given the entry CC1=[N+]([O-])c2ccccc2C(=O)C1=O , report its measured GI50. > 100 µM (inactive)

Quick one: GI50 for CCOC(=O)C1(C/C=C\CBr)CCCC1=O (configuration not stated) ? 29.3 µM (inactive)

Which GI50 reading was recorded for the compound CC(CO)CCC(O)C(C)(O)C1CCC2(O)C3=CC(=O)C4CC(O)C(O)CC4(C)C3CCC12C (configuration not stated) ? > 100 µM (inactive)

Which GI50 value is on record for COc1ccc(/C=N/n2c(Cc3ccccc3)n[nH]c2=O)cc1 ? > 100 µM (inactive)

I'd like to know its GI50. The compound in question is C/C=C1\NC(=O)[C@H]2CSSCCC=C[C@H](CC(=O)N[C@H](C(C)C)C(=O)N2)OC(=O)[C@H](C(C)C)NC1=O 0.000131 µM (active)

Fill in: GI50 of Cc1cc(=O)oc2cc(OC(=O)N(C)C)c(Cl)cc12 is ___ > 100 µM (inactive)

Which GI50 is listed for C/N=N/N(C)C(=O)NC ? > 100 µM (inactive)
